These entries and their values trace back to patent US20240383984A1.

# target: T1, human FcRH5 protein fragment (soluble) (human, UniProt Q96RD9 16-851)
# T1 construct: whole entry named; also called soluble human FcRH5; Human FcRH5 (BIACORE analyte)
# T1 sequence: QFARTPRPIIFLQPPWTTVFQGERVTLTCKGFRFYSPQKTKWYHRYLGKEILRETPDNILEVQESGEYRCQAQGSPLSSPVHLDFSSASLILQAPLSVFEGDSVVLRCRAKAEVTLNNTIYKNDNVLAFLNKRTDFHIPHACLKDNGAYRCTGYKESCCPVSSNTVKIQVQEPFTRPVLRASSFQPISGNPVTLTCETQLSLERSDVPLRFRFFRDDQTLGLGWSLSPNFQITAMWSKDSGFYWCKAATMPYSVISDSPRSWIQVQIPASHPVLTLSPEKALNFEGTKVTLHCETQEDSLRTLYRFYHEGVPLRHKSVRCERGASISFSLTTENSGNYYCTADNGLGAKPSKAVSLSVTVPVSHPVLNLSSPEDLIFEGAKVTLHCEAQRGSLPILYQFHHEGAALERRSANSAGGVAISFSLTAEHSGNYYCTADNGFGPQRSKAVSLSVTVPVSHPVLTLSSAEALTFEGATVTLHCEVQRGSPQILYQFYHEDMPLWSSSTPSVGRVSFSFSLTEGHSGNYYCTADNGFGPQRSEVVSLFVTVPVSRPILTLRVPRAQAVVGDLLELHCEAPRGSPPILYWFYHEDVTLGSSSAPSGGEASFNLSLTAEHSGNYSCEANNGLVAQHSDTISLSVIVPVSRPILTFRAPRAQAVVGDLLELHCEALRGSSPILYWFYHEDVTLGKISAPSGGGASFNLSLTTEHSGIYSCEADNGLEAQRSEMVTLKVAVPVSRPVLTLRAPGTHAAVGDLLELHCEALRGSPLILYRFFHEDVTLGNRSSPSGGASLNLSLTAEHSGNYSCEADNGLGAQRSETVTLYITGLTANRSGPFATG
# test.name: SPR, hIgG capture, screening
parameter: Kd (nM)
Give bare numbers, in nM.

A selection of reference data follows.
binder="hu1G7.v1 heavy chain M64L with light chain of hu1G7.v1.4 (antibody, V domains shown, human IgG) VH: EVQLVESGPGLVKPSETLSLTCTVSGFSLTRFGVHWVRQPPGKGLEWLGVIWRGGSTDYNAAFLSRLTISKDNSKNQVSLKLSSVTAADTAVYYCSNHYYGSSDYALDNWGQGTLVTVSS VL: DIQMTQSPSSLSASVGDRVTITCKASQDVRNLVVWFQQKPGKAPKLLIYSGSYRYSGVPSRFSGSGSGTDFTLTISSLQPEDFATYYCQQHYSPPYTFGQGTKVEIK" parameter=Kd readout_unit=nM val=2.5
binder="hu1G7.v1 heavy chain M64V with light chain of hu1G7.v1.6 (antibody, V domains shown, human IgG) VH: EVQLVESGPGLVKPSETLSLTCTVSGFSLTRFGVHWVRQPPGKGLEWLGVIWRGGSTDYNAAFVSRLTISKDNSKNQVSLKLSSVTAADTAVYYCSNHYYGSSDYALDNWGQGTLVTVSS VL: DIQMTQSPSSLSASVGDRVTITCKASQDVSNIVVWFQQKPGKAPKLLIYSGYYRYSGVPSRFSGSGSGTDFTLTISSLQPEDFATYYCQQQYQPPYTFGQGTKVEIK" parameter=Kd readout_unit=nM val=2.7

Now turn to the next binder.
-- ask State the recorded Kd for this entry: hu1G7.v1 heavy chain M64L with light chain of hu1G7.v1.5 (antibody, V domains shown, human IgG) VH: EVQLVESGPGLVKPSETLSLTCTVSGFSLTRFGVHWVRQPPGKGLEWLGVIWRGGSTDYNAAFLSRLTISKDNSKNQVSLKLSSVTAADTAVYYCSNHYYGSSDYALDNWGQGTLVTVSS VL: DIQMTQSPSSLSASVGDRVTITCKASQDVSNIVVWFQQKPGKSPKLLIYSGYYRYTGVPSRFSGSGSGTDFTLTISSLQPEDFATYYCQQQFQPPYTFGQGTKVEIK
-- reply 2.3
